TARGET_OR_TEST_SYSTEM: C. glutamicum MetY enzyme (Corynebacterium glutamicum, UniProt Q79VI4)
Sequence (Q79VI4 whole entry): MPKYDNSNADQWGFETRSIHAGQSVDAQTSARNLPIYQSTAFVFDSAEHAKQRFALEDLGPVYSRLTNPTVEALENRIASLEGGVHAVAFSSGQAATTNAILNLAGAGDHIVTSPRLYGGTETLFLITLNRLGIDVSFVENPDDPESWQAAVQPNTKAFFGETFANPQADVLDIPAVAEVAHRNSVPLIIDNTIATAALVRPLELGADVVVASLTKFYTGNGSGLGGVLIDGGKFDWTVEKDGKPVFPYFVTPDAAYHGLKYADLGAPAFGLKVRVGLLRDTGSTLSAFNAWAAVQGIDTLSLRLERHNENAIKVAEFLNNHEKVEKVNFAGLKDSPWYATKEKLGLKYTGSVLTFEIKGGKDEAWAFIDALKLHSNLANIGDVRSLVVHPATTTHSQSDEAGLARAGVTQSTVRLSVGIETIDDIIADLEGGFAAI
MEASUREMENT_TYPE: IC50

Entry CSCC[C@H](N)C(=O)O under C. glutamicum MetY enzyme (Corynebacterium glutamicum, UniProt Q79VI4) had IC50 of ~5 mM
